Conditions: in methanol, 288.2 K
MEASURED_PARAMETER: solubility (mole fraction)
One number for each entry.

[in] Please look up its solubility (mole fraction): C=C(C)[C@@H]1CC[C@]2(CO)CC[C@]3(C)[C@H](CC[C@@H]4[C@@]5(C)CC[C@H](O)C(C)(C)[C@@H]5CC[C@]43C)[C@@H]12
[out] 0.000248

* * *

Settings: in n-pentanol, 288.2 K
MEASURED_PARAMETER: solubility (mole fraction)
One number for each entry.

[in] Please look up its solubility (mole fraction): C=C(C)[C@@H]1CC[C@]2(CO)CC[C@]3(C)[C@H](CC[C@@H]4[C@@]5(C)CC[C@H](O)C(C)(C)[C@@H]5CC[C@]43C)[C@@H]12
[out] 0.0012
